The reported measurements were obtained from ChEMBL document CHEMBL3091308.

# assayComment: Antiinflammatory activity in […] cells assessed as inhibition of LPS-induced NO production measured 24 hrs post LPS-challenge by spectrophotometry
# Format: functional, cell-based
# experimentalContext: BV-2, 24 h
measureName: IC50 (µM)

- CON1C(=O)[C@@]2(C[C@@H]3N=C([C@](C)(O)C[C@@H](C)[C@@]45ON4[C@H]4C[C@@]6(C(=O)N(OC)c7ccccc76)[C@H]6C[C@@H]5[C@@H]4CO6)[C@@H]4C[C@H]2OC[C@H]34)c2ccccc21 (some centres not stated): 10.2
- COc1cc(/C=C/C(=O)CC(=O)/C=C/c2ccc(O)c(OC)c2)ccc1O: 3.9
